# Procedure Text: Renal clearance in wild-type bile duct-cannulated Sprague-Dawley rat at 2 mg/kg, iv
# Assay type: ADME, organism-based, Kidney
# Set-up: dose 2 mg/kg, route intravenous
# Test Context: in vivo
Property Label: CL renal (mL/min/kg)
Give just the number in mL/min/kg; leave the unit off.

I'd like to know its CL renal. The compound in question is COc1ccc(-n2nc(C(N)=O)c3c2[14C](=O)N(c2ccc(N4CCCCC4=O)cc2)CC3)cc1 11.8

----------
# Procedure Text: Oral steady-state volume of distribution in beagle dog at 5 mg/kg followed by activated charcoal administration 3 hrs post compound dosing
# Format: ADME, organism-based, Canis lupus familiaris
# Parameters: dose 5 mg/kg
# Test Context: in vivo, read-out: Vss/F
Property Label: Vd/F (L/kg)
Dear colleague, please return just the value in L/kg, with no unit written.

Reported Vd/F, compound COc1ccc(-n2nc(C(N)=O)c3c2C(=O)N(c2ccc(N4CCCCC4=O)cc2)CC3)cc1 : ____ 0.5

----------
# Procedure Text: AUC (0 to infinity) in wild-type Sprague-Dawley rat at 4 mg/kg, po
# Type: ADME, organism-based
# Parameters: time infinity, dose 4 mg/kg, route oral
# Test Context: plasma
Property Label: AUC(0-inf) (ng·h/mL)
Give a bare numeral; the unit ng·h/mL is implied.

I'd like to know its AUC(0-inf). The molecule in question is COc1ccc(-n2nc(C(N)=O)c3c2C(=O)N(c2ccc(N4CCCCC4=O)cc2)CC3)cc1 1390

----------
# Procedure Text: Cmax in beagle dog at 5 mg/kg, po followed by activated charcoal administration 3 hrs post compound dosing
# Format: ADME, organism-based, Canis lupus familiaris
# Set-up: dose 5 mg/kg, route oral
# Test Context: in vivo
Property Label: Cmax (ng/mL)
Write the value in ng/mL as a bare number.

Form field: reported Cmax of COc1ccc(-n2nc(C(N)=O)c3c2C(=O)N(c2ccc(N4CCCCC4=O)cc2)CC3)cc1 8070

----------
# Procedure Text: Oral steady-state volume of distribution in P-gp-knockout Sprague-Dawley rat at 4 mg/kg
# Type: ADME, organism-based
# Parameters: dose 4 mg/kg
# Test Context: in vivo, read-out: Vss/F
Property Label: Vd/F (L/kg)
Form entry: value (L/kg) — number only.

Bench note: what Vd/F did COc1ccc(-n2nc(C(N)=O)c3c2C(=O)N(c2ccc(N4CCCCC4=O)cc2)CC3)cc1 show? 2.4

----------
# Procedure Text: Cmax in wild-type 30 mins activated charcoal pre-treated bile duct-cannulated Sprague-Dawley rat at 2 mg/kg, iv followed by activated charcoal administration 5 to 180 mins post compound dosing
# Format: ADME, organism-based
# Set-up: dose 2 mg/kg, route intravenous
# Test Context: in vivo
Property Label: Cmax (ng/mL)
Express it in ng/mL; write the number only.

Fill in the blank: the reported Cmax of COc1ccc(-n2nc(C(N)=O)c3c2[14C](=O)N(c2ccc(N4CCCCC4=O)cc2)CC3)cc1 is ____. 1640

----------
# Procedure Text: Mean residence time in Sprague-Dawley rat at 4 mg/kg, po administered 1 hr post GF-120918 treatment
# Type: ADME, organism-based
# Set-up: dose 4 mg/kg, route oral
# Test Context: in vivo, with GF-120918
Property Label: MRT (h)
Give just the numeric value; h need not be written.

If you can, please state the reported MRT value of COc1ccc(-n2nc(C(N)=O)c3c2C(=O)N(c2ccc(N4CCCCC4=O)cc2)CC3)cc1 . 2.1
